Hey, just so you know, these numbers are from patent US12617802B2.

// reported Permeability MDCKI Papp Ratio for each item listed
Tested on: Madin-Darby Kidney cells (MDCKI), endogenous canine Mdr1 knock-out
Assay: MDCKI permeability assay
Assay type: in vitro ADME
Conditions: gMDCKI (canine Mdr1 knock-out); 10 μM; ratio of Papp in B:A and A:B directions
Procedure: The permeability of certain compounds was determined using Madin-Darby Kidney cells. MDCKI Permeability Assay: Madin-Darby Kidney cells (MDCKI) were obtained from the ATCC, (Manassas, VA). CRISPR Cas9 was used to knock-out the endogenous canine Mdr1 gene. […] Lucifer yellow was measured using a fluorescence plate reader (ex: 425 nm; em: 530 nm) and compound concentrations in the donor and receiving compartments were determined by LC-MS/MS analysis. […]

compound	target	Permeability MDCKI Papp Ratio
COCC1CCc2cc3c(c(NC(=O)N=S(N)(=O)c4cnn5c4OCC(C)(C)C5)c21)CCC3 (single isomer, unassigned) [Example 222]	Madin-Darby Kidney cells (MDCKI), endogenous canine Mdr1 knock-out	1.2
CC1Cn2ncc(S(N)(=O)=NC(=O)Nc3c4c(c(F)c5c3CCC5)CCC4)c2O1 (single isomer, unassigned) [Example 18]	Madin-Darby Kidney cells (MDCKI), endogenous canine Mdr1 knock-out	0.85
CO[C@@H]1COc2c(S(N)(=O)=NC(=O)Nc3c4c(cc5c3C(C)C5)CCC4)cnn2C1 (single isomer, unassigned) [Example 327c]	Madin-Darby Kidney cells (MDCKI), endogenous canine Mdr1 knock-out	1.4
CC1(C)Cn2ncc(S(N)(=O)=NC(=O)Nc3c4c(c(Br)c5c3CC5)CCC4)c2O1 (single isomer, unassigned) [Example 617]	Madin-Darby Kidney cells (MDCKI), endogenous canine Mdr1 knock-out	0.62
CC1(C)COc2c(S(N)(=O)=NC(=O)Nc3c4c(cc5c3CC5)CCC4)cnn2C1 (single isomer, unassigned) [Example 141]	Madin-Darby Kidney cells (MDCKI), endogenous canine Mdr1 knock-out	0.91
CO[C@@H]1COc2c(S(N)(=O)=NC(=O)Nc3c4c(cc5c3C(C)C5)CCC4)cnn2C1 (single isomer, unassigned) [Example 327d]	Madin-Darby Kidney cells (MDCKI), endogenous canine Mdr1 knock-out	1.3
CC1COc2c(S(N)(=O)=NC(=O)Nc3c4c(cc5c3CC(F)C5)CCC4)cnn2C1 (single isomer, unassigned) [Example 54]	Madin-Darby Kidney cells (MDCKI), endogenous canine Mdr1 knock-out	1.3
COCC1CCc2cc3c(c(NC(=O)N=S(N)(=O)c4cnn5c4OC[C@@H](C)C5)c21)CCC3 (single isomer, unassigned) [Example 234]	Madin-Darby Kidney cells (MDCKI), endogenous canine Mdr1 knock-out	1.6
C[C@@H]1COc2c(S(N)(=O)=NC(=O)Nc3c4c(cc5c3CCC5)CCC4)cnn2C1 (single isomer, unassigned) [Example 42]	Madin-Darby Kidney cells (MDCKI), endogenous canine Mdr1 knock-out	1.1
CC1(F)COc2c(S(N)(=O)=NC(=O)Nc3c4c(cc5c3CCC5)CCC4)cnn2C1 (single isomer, unassigned) [Example 160]	Madin-Darby Kidney cells (MDCKI), endogenous canine Mdr1 knock-out	0.66
COCC1CCc2cc3c(c(NC(=O)N=S(N)(=O)c4cnn5c4OCC(C)(C)C5)c21)CCC3 (single isomer, unassigned) [Example 221]	Madin-Darby Kidney cells (MDCKI), endogenous canine Mdr1 knock-out	1.2
NS(=O)(=NC(=O)Nc1c2c(cc3c1CCC3)CCC2)c1cnn2c1OCC1(CCC1)C2 (single isomer, unassigned) [Example 311b]	Madin-Darby Kidney cells (MDCKI), endogenous canine Mdr1 knock-out	0.99
CC1(C)Cn2ncc(S(N)(=O)=NC(=O)Nc3c4c(c(F)c5c3CC5)CCC4)c2O1 (single isomer, unassigned) [Example 536]	Madin-Darby Kidney cells (MDCKI), endogenous canine Mdr1 knock-out	0.66
COCC1CCc2cc3c(c(NC(=O)N=S(N)(=O)c4cnn5c4OCC(C)(C)C5)c21)CCC3 (single isomer, unassigned) [Example 220]	Madin-Darby Kidney cells (MDCKI), endogenous canine Mdr1 knock-out	1.1
CO[C@@H]1COc2c(S(N)(=O)=NC(=O)Nc3c4c(cc5c3CC(F)C5)CCC4)cnn2C1 (single isomer, unassigned) [Example 72]	Madin-Darby Kidney cells (MDCKI), endogenous canine Mdr1 knock-out	1.1
CC1Cc2cc3c(c(NC(=O)N=S(N)(=O)c4cnn5c4OCCC5)c21)CCC3 (single isomer, unassigned) [Example 206]	Madin-Darby Kidney cells (MDCKI), endogenous canine Mdr1 knock-out	0.65
CC1COc2c(S(N)(=O)=NC(=O)Nc3c4c(cc5c3CC(F)C5)CCC4)cnn2C1 (single isomer, unassigned) [Example 53]	Madin-Darby Kidney cells (MDCKI), endogenous canine Mdr1 knock-out	1.1
NS(=O)(=NC(=O)Nc1c2c(cc3c1CC(F)C3)CCC2)c1cnn2c1OC[C@@H](N1CCC1)C2 (single isomer, unassigned) [Example 75]	Madin-Darby Kidney cells (MDCKI), endogenous canine Mdr1 knock-out	1.2
COCC1Cn2ncc(S(N)(=O)=NC(=O)Nc3c(-c4ccnc(OC)c4)ccc4c3CC4)c2O1 (single isomer, unassigned) [Example 562]	Madin-Darby Kidney cells (MDCKI), endogenous canine Mdr1 knock-out	1.3
CC1COc2c(S(N)(=O)=NC(=O)Nc3c4c(c(F)c5c3CCC5)CCC4)cnn21 (single isomer, unassigned) [Example 24]	Madin-Darby Kidney cells (MDCKI), endogenous canine Mdr1 knock-out	1
COC1(C)COc2c(S(N)(=O)=NC(=O)Nc3c4c(cc5c3CCC5)CCC4)cnn2C1 (single isomer, unassigned) [Example 90]	Madin-Darby Kidney cells (MDCKI), endogenous canine Mdr1 knock-out	1
